protocol-description: Inhibition of the PGPH-like activity
Assay type: functional
k obs / 1 less than 50 M⁻¹ s⁻¹ is Yes; k obs / 1 greater than or equal to 50 M⁻¹ s⁻¹ is No.

Query block: Hello, I'm reviewing records and need to know if k obs / 1 of CC[C@H](C)[C@H](NC(=O)[C@H]([C@@H](C)CC)N(C)C(C)=O)C(=O)NC(CO)C(=O)NC(CC(C)C)C(=O)[C@@]1(CO)CO1 (single isomer, unassigned) is below 50 M⁻¹ s⁻¹. Could you check?
Result block: Yes

Query block: Hello, I'm reviewing records and need to know if k obs / 1 of CC(C)CCCCC(=O)NC(CO)C(=O)N[C@H](CC(C)C)C(=O)[C@@]1(C)CO1 (stereo not given in full) is below 50 M⁻¹ s⁻¹. Could you check?
Result block: No

Query block: Hello, I'm reviewing records and need to know if k obs / 1 of CC[C@H](C)[C@H](NC(=O)[C@H]([C@@H](C)CC)N(C)C(C)=O)C(=O)NC(C(=O)NC(CC(C)C)C(=O)[C@@]1(C)CO1)[C@@H](C)O (single isomer, unassigned) [EPOXOMYCIN] is below 50 M⁻¹ s⁻¹. Could you check?
Result block: Yes

Query block: Hello, I'm reviewing records and need to know if k obs / 1 of CC(C)CCCCC(=O)NC(CO)C(=O)N[C@H](CC(C)C)C(=O)[C@@]1(CO)CO1 (stereo not given in full) is below 50 M⁻¹ s⁻¹. Could you check?
Result block: No

====

Would you mind telling me the reported k obs / 1 of each entry?
protocol-description: Inhibition of the PGPH-like activity
Assay type: functional

Query block: Look up k obs / 1: CC[C@H](C)[C@H](NC(=O)[C@H]([C@@H](C)CC)N(C)C(C)=O)C(=O)NC(CO)C(=O)NC(CC(C)C)C(=O)[C@@]1(C)CO1 (single isomer, unassigned)
Result block: 90 M⁻¹ s⁻¹

Query block: Look up k obs / 1: CC(C)CCCCC(=O)NC(C(=O)NC(CC(C)C)C(=O)[C@@]1(C)CO1)[C@@H](C)O (stereo partly drawn)
Result block: 45 M⁻¹ s⁻¹

Query block: Look up k obs / 1: CC[C@H](C)[C@H](NC(=O)[C@H]([C@@H](C)CC)N(C)C(C)=O)C(=O)NC(C(=O)NC(CC(C)C)C(=O)[C@@]1(CO)CO1)[C@@H](C)O (single isomer, unassigned)
Result block: 37 M⁻¹ s⁻¹
